target.of.assay: bovine serum albumin (BSA) (Bos taurus, UniProt P02769)
Construct: BSA, molecular weight of 66 kDa, 583 residues; purchased Sigma Aldrich Chemicals (Taufkirchen, Germany)
Sequence (P02769 25-607): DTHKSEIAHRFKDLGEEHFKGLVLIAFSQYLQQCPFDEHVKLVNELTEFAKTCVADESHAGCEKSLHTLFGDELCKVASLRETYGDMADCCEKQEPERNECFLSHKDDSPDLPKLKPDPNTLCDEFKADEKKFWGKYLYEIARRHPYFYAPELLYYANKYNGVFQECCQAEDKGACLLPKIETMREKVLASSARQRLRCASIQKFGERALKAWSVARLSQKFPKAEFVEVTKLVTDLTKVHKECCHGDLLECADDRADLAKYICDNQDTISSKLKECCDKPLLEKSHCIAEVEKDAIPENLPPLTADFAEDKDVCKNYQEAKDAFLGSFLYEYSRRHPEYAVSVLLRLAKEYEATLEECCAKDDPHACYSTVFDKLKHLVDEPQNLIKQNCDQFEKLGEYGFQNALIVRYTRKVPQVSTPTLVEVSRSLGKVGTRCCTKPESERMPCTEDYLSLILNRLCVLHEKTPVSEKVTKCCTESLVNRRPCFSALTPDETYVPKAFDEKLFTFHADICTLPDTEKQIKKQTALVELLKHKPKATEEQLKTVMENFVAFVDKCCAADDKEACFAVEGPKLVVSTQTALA
assay.explanation: High hydrostatic pressure fluorescence titration of ANS with BSA (1-2000 bar)
Type: binding
conditions: Binding constant Kb1, 250 mM Mg(ClO4)2, 15 °C, 2000 bar

structure.notation	Kd
O=S(=O)(O)c1cccc2cccc(Nc3ccccc3)c12	3.85 µM

---

target.of.assay: bovine serum albumin (BSA) (Bos taurus)
Construct: BSA, molecular weight of 66 kDa, 583 residues; purchased Sigma Aldrich Chemicals (Taufkirchen, Germany)
assay.explanation: High hydrostatic pressure fluorescence titration of ANS with BSA (1-2000 bar)
Type: binding
conditions: Binding constant Kb2, 250 mM Mg(ClO4)2, 15 °C, 500 bar
Protocol: The extent of complex formation between ANS and BSA was followed by means of steady-state fluorescence spectroscopy using a K2 fluorometer from ISS, Inc. (Champaign, IL, USA). […] In the next step, we explored the impact of high hydrostatic pressure (HHP) on the binding of ANS to BSA in the presence of the three salts and in the temperature range between 5 and 25 °C. To this end, we performed the same titration experiments following the complex formation by means of HHP fluorescence spectroscopy. […]
pKd: −log10 of the molar value.
quantity.name: pKd

structure.notation	quantity.name	val
O=S(=O)(O)c1cccc2cccc(Nc3ccccc3)c12	pKd	5.18

---

target.of.assay: bovine serum albumin (BSA) (Bos taurus)
Construct: BSA, molecular weight of 66 kDa, 583 residues; purchased Sigma Aldrich Chemicals (Taufkirchen, Germany)
assay.explanation: High hydrostatic pressure fluorescence titration of ANS with BSA (1-2000 bar)
Format: binding
conditions: Binding constant Kb1, 250 mM MgCl2, 15 °C, 1 bar
quantity.name: Kd (nM)

structure.notation	target.of.assay	quantity.name	val
O=S(=O)(O)c1cccc2cccc(Nc3ccccc3)c12	bovine serum albumin (BSA) (Bos taurus)	Kd	2780

---

target.of.assay: bovine serum albumin (BSA) (Bos taurus)
Construct: BSA, molecular weight of 66 kDa, 583 residues; purchased Sigma Aldrich Chemicals (Taufkirchen, Germany)
assay.explanation: High hydrostatic pressure fluorescence titration of ANS with BSA (1-2000 bar)
Type: binding
conditions: Binding constant Kb2, 250 mM Mg(ClO4)2, 5 °C, 1500 bar
pKd: −log10 of the molar value.

structure.notation	pKd
O=S(=O)(O)c1cccc2cccc(Nc3ccccc3)c12	5.72

---

target.of.assay: bovine serum albumin (BSA) (Bos taurus, UniProt P02769)
Construct: BSA, molecular weight of 66 kDa, 583 residues; purchased Sigma Aldrich Chemicals (Taufkirchen, Germany)
assay.explanation: High hydrostatic pressure fluorescence titration of ANS with BSA (1-2000 bar)
Format: binding
conditions: Binding constant Kb1, 250 mM Mg(ClO4)2, 5 °C, 1000 bar
pKd: −log10 of the molar value.
quantity.name: pKd

structure.notation	val
O=S(=O)(O)c1cccc2cccc(Nc3ccccc3)c12	5.53

---

target.of.assay: bovine serum albumin (BSA) (Bos taurus, UniProt P02769)
Construct: BSA, molecular weight of 66 kDa, 583 residues; purchased Sigma Aldrich Chemicals (Taufkirchen, Germany)
assay.explanation: High hydrostatic pressure fluorescence titration of ANS with BSA (1-2000 bar)
Format: binding
conditions: Binding constant Kb2, 250 mM Mg(ClO4)2, 5 °C, 1 bar
pKd: −log10 of the molar value.

compound	pKd
O=S(=O)(O)c1cccc2cccc(Nc3ccccc3)c12 [ANS, 8-anilinonaphthalene-1-sulfonic acid]	5.28
